condition.parameters: in n-propanol, 308.15 K
value.kind: solubility (mole fraction)
Give the value as a plain number.

[in] Requested read-out: solubility (mole fraction). Entry: CC(=O)N[C@@H](C)C(=O)O
[out] 0.153

----------
condition.parameters: in n-butanol, 313.15 K
value.kind: solubility (mole fraction)
Give the value as a plain number.

[in] Requested read-out: solubility (mole fraction). Entry: CC(=O)N[C@@H](C)C(=O)O
[out] 0.127

----------
condition.parameters: in ethanol, 293.15 K
value.kind: solubility (mole fraction)
Give the value as a plain number.

[in] Requested read-out: solubility (mole fraction). Entry: CC(=O)N[C@@H](C)C(=O)O
[out] 0.138

Each recorded value in this set is attributed to BigSolDB 2.1.
